Assay: Metabolic half-life and clearance (HLM)
Assay type: in vitro ADME
# T1/2 (HLM, min) annotations
READOUT KIND: T1/2 (HLM, min)

COMPOUND: CCC(C)n1ncn(-c2ccc(N3CCN(c4ccc(OCC5COC(Cn6cncn6)(c6ccc(Cl)cc6Cl)O5)cc4)CC3)cc2)c1=O (centres unmarked) [ITZ, Itraconazole, reference compound]
VALUE OPERATOR: =
READOUT VALUE: 27.0
//
COMPOUND: C[C@@]1(c2ccc(Cl)cc2Cl)OC[C@@H](COc2ccc(N3CCN(c4ccc(NC(=O)NN)cc4)CC3)cc2)O1
VALUE OPERATOR: =
READOUT VALUE: 20.1
//
COMPOUND: C[C@@]1(c2ccc(Cl)cc2Cl)OC[C@@H](COc2ccc(N3CCN(c4ccc(NC(=O)c5cccc(O)c5)cc4)CC3)cc2)O1
VALUE OPERATOR: >
READOUT VALUE: 231
//
COMPOUND: CC(=O)c1cccc(C(=O)Nc2ccc(N3CCN(c4ccc(OC[C@@H]5CO[C@](C)(c6ccc(Cl)cc6Cl)O5)cc4)CC3)cc2)c1
VALUE OPERATOR: =
READOUT VALUE: 11.4
//
COMPOUND: C[C@]1(c2ccc(Cl)cc2Cl)OC[C@@H](COc2ccc(N3CCN(c4ccc(NC(=O)NN)cc4)CC3)cc2)O1
VALUE OPERATOR: =
READOUT VALUE: 11.5
